Test system: SR leukemia
assay info: NCI tumour cell line growth inhibition, 48 h; in the data active = GI50 below about 0.43 µM; inactive = the rest
Form entry, call: pick from y for active, n for inactive

The examples below pair each entry with its known result.
[[record]]
compound = "CCOC(=O)c1sc(-c2ccc(OS(=O)(=O)c3cccs3)c(C=O)c2)nc1C"
class = "n"

[[record]]
compound = "COc1ccc(-c2ccc3c(NC(=O)C4CC4)n[nH]c3n2)cc1"
class = "n"

[[record]]
compound = "Cn1nc(C(F)(F)F)c(-c2ccc(Cl)c(C(F)(F)F)c2)c1-c1ccc(OCc2ccc(Cl)cc2)cc1O"
class = "n"

[[record]]
compound = "COc1ccc(/C=C/c2c(C(=O)/C=C/c3ccc(Cl)cc3)c(C)nc3ccccc23)cc1"
class = "n"

[[record]]
compound = "COc1ccc(-c2nn(-c3cccc(Cl)c3)cc2C=C(C#N)C#N)cc1"
class = "n"


Moving on to the next compound.
Problem: Status in this test for NC(=O)CCC(NC(=O)OCc1ccccc1)C(=O)OCC(=O)c1ccccc1 (stereo not given) ?
Solution: n
